# Tgt: E3 ubiquitin-protein ligase TRIM33 (Homo sapiens, UniProt Q9UPN9)
# Sequence (Q9UPN9 whole entry): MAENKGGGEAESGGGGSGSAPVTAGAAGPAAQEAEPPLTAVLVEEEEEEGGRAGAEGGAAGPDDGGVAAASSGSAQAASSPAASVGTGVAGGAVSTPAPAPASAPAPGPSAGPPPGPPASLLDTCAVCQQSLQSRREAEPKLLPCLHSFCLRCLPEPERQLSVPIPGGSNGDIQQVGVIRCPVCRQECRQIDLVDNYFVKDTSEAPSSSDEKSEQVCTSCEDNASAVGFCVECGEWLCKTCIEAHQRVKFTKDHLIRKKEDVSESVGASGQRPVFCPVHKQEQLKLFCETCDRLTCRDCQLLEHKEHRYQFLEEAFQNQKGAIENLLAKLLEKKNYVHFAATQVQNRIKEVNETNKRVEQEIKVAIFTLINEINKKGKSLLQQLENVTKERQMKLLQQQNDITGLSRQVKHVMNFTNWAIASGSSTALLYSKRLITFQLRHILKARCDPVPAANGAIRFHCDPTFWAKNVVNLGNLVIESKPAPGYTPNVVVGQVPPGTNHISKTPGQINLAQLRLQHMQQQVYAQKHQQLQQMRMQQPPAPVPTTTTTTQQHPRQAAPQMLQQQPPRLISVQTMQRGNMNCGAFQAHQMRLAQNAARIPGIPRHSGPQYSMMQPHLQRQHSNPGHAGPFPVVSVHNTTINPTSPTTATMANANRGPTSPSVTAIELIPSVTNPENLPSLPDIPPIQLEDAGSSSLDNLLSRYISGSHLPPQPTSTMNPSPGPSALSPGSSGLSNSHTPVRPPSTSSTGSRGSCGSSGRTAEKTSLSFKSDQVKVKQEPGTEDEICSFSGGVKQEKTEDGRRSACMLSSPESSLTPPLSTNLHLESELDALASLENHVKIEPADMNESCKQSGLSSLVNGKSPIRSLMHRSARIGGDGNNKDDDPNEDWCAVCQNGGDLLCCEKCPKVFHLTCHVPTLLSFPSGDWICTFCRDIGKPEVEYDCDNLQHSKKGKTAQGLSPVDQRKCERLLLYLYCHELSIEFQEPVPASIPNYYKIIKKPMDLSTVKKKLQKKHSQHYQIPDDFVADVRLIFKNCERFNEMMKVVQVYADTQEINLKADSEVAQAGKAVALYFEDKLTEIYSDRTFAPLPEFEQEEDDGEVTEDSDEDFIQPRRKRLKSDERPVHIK
# Assay Text: Inhibition of recombinant TRIM33 PHD bromodomain (unknown origin) using biotinylated H3 peptide (H3K9me3K18ac) by AlphaScreen assay
Measurement Kind: pIC50
In plain terms, pIC50 is the concentration in mol/L turned into minus its base-10 logarithm.

COc1ccc(Nc2c(-c3nc[nH]c3C)nc3cnccn23)cc1 ... 4.83
COc1ccc(CCNc2c(-c3ccc4nccn4c3)nc3ccc(Br)cn23)cc1OC ... 4.69

# next molecule below
Request the reported pIC50 associated with COC(=O)c1ccc2nc(-c3ccc4nccn4c3)c(NCCc3ccc(OC)c(OC)c3)n2c1 4.80

----------
# Tgt: UniProt:O15164
# Sequence (O15164 whole entry): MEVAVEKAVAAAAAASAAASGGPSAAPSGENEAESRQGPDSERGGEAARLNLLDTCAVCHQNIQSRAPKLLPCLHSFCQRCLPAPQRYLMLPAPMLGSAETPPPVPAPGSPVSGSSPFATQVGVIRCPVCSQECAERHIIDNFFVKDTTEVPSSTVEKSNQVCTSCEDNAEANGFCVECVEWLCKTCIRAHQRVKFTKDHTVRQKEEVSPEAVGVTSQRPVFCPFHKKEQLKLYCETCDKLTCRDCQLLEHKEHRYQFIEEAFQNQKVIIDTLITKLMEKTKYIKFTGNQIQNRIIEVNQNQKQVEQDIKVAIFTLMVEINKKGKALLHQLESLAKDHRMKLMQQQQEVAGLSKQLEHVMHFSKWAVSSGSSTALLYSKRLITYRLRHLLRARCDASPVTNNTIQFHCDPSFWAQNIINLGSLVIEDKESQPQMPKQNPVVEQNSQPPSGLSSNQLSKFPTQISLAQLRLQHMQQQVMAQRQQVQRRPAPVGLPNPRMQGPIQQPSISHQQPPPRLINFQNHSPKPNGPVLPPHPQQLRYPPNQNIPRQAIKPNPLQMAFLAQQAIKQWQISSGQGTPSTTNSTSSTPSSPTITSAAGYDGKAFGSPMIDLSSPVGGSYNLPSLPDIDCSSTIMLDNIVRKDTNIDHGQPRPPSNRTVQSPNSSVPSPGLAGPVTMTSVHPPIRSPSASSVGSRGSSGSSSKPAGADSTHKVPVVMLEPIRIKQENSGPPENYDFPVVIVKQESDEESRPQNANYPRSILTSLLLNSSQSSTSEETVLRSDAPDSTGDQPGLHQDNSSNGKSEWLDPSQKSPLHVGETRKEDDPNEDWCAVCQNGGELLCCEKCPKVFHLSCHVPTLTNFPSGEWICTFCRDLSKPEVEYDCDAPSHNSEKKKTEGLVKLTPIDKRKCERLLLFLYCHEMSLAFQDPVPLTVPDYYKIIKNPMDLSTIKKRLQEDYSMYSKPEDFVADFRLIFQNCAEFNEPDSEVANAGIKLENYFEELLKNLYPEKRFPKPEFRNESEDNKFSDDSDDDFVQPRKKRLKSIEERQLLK
# Assay Text: Inhibition of recombinant TRIM24 (unknown origin) using biotinylated H3 peptide (H3K9me3K18ac) by AlphaScreen assay
Measurement Kind: log10 of IC50 (log10 of the value in µM)
// do not treat as linear: log10 of IC50, unit µM

CCCOc1ccn2c(C(C)=O)cc(-c3nc4ccc(C(=O)OC)cn4c3NCCc3ccc(OC)c(OC)c3)c2c1 ... 3.75
COc1cc(C=O)ccc1O ... -0.79
COC(=O)c1ccc2nc(-c3nc[nH]c3C)c(NCCc3ccc(OC)c(OC)c3)n2c1 ... 2.58
COCCNc1c(-c2ccc3nccn3c2)nc2ccccn12 ... 3.76
CCCOc1ccn2c(C(C)=O)cc(-c3nc4cnccn4c3NCc3ccc(C#N)cc3)c2c1 ... 2.91
Cc1[nH]cnc1-c1nc2cnccn2c1NCCN1CCOCC1 ... 2.08
Cc1nc(-c2nc3ccccn3c2NC2CCCCC2)c[nH]1 ... 1.98
COCCNc1c(-c2ccc3nccn3c2)nc2ccc(Br)cn12 ... 2.85
CCCOc1ccn2c(C(C)=O)cc(-c3nc4ccccn4c3NCCc3ccc(OC)c(OC)c3)c2c1 ... 2.57
CCCOc1ccn2c(C(C)=O)cc(-c3nc4cnccn4c3NCCN3CCOCC3)c2c1 ... 3.70

Request the reported log10 of IC50 associated with CCCOc1ccn2c(C(C)=O)cc(-c3nc4cnccn4c3NCCOC)c2c1 3.45

COc1ccc(Nc2c(-c3ccc4nccn4c3)nc3ccccn23)cc1 ? 2.18

CCCOc1ccn2c(C(C)=O)cc(-c3nc4ccccn4c3NCCN3CCOCC3)c2c1 ? 2.40

O=Cc1cccc(-c2ccc(C(=O)O)cc2)c1 ? -0.78

O=C1CCCCCCC1 ? -0.78
